Target: Mycobacterium thermoresistibile MycP1 (Mycolicibacterium thermoresistibile)
Sequence (G7CDQ2 19-443): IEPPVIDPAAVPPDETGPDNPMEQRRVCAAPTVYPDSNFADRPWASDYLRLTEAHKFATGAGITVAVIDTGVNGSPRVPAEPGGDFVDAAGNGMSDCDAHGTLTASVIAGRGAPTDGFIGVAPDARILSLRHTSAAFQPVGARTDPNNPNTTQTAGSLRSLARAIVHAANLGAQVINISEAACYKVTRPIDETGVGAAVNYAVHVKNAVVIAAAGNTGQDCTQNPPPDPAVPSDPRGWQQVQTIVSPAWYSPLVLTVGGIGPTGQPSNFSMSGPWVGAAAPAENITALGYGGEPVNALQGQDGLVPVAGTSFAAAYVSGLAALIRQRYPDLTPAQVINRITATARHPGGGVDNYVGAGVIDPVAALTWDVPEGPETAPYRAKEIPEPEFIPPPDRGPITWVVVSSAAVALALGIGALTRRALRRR
Test: In vitro quenched fluorescent peptide assay of MycP1 inhibitors
Readout Label: pIC50
Give bare numbers, as −log10 of the molar value.

Please report the recorded pIC50 for N=C(N)c1ccc(/C=C/c2ccc(C(=N)N)cc2O)cc1 [compound 11, Hydroxystilbamidine] .
4.07

Hello, the source for this data is paper PMC4210175, in case you need it.
